# TARGET SYSTEM: human GPCR sphingosine 1-phosphate receptor 2 (Homo sapiens, UniProt O95136)
# Construct: host or cells: CHO
# Sequence (O95136 whole entry): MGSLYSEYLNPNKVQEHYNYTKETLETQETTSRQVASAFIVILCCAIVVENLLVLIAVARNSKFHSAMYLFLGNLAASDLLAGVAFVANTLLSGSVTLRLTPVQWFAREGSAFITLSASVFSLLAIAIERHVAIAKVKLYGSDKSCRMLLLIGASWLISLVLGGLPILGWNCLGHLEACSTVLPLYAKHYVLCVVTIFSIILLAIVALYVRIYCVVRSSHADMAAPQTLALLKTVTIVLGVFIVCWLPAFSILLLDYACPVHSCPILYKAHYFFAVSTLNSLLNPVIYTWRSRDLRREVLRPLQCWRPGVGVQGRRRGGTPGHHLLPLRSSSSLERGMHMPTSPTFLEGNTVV
# EXPERIMENT SUMMARY: S1PR2 antagonist Ca2+ flux assay
# Assay type: cell-based
# CONDITION SET: antagonist mode, CHO-S1PR2 cells, S1P at EC80, Ca2+ fluorescence; read-out: S1P2 EC50 (nM), S1P2 antagonist EC50
OBSERVABLE: EC50 (nM)

>>> df
                         compound_structure  recorded_value
0  CCOc1cc2nc(Cc3nn(CC(=O)O)c(=O)c4c(C)cccc34)[nH]c2cc1Cl            29.8
1  COc1ccc2c(Cc3nc4cc(Cl)c(OCC(F)F)cc4[nH]3)nn(CC(=O)N3CCOCC3)c(=O)c2c1            9.11
2  O=C(Cc1nn(Cc2nc3cc(OCC(F)F)c(Cl)cc3[nH]2)c2ccccc2c1=O)N1CCOCC1            9.25
3  N#CCCN(C(=O)Cn1nc(Cc2nc3cc(OCC(F)F)c(C#N)cc3[nH]2)c2ccccc2c1=O)C1CC1            95.8
4  CN(CC(F)F)C(=O)Cn1nc(Cc2nc3cc(C#N)c(OCC(F)F)cc3[nH]2)c2ccccc2c1=O            32.5

(I) O=C(O)Cn1nc(Cn2cc3cc(OCC(F)F)c(Cl)cc3n2)c2ccccc2c1=O
(II) O=c1c2ccccc2c(Cc2nc3cc(Cl)c(OC(F)(F)F)cc3[nH]2)nn1CC1CC1
Challenge: Of the two listed items, I and II , which carries the larger EC50 figure? Pick one and reply with its label.
Response given: II
(II: 868 nM, I: 184 nM)

Cited source: patent US20210315893A1
